tested on: U2OS; experiment: Multiplex assay against U2OS; format: toxicity, cell-based; details: human, 48 h, 1 µM, compound concentration 1 uM, replicate 1
Classes based on Population Tubulin-Different-Phenotype (%): low bin: < 10%; mid bin: ≥ 10% and < 20%; high bin: ≥ 20%

- COMPOUND: "CN1CCCC(n2nc(Cc3ccc(Cl)cc3)c3ccccc3c2=O)CC1.Cl (stereo unspecified) [AZELASTINE HYDROCHLORIDE]"
  CAT: "high bin"
- COMPOUND: "c1cn2cc(-c3ccc4cn[nH]c4c3)nc(Nc3ccc(N4CCOCC4)cc3)c2n1 [ENTOSPLETINIB]"
  CAT: "mid bin"
- COMPOUND: "Cc1csc2c(N[C@@H](C)CN3CCN(S(=O)(=O)c4ccc(Cl)c(Cl)c4)CC3)ncnc12"
  CAT: "high bin"
- COMPOUND: "CN1CCN(c2ccc(OC(F)(F)F)c(Nc3ncc4c(n3)-c3c(c(C(N)=O)nn3CCO)CC4)c2)CC1 [ONVANSERTIB]"
  CAT: "mid bin"
- COMPOUND: "Cl.N#Cc1ccc2[nH]cc(CCCCN3CCN(c4ccc5oc(C(N)=O)cc5c4)CC3)c2c1 [VILAZODONE HYDROCHLORIDE]"
  CAT: "mid bin"
- COMPOUND: "C=CC(=O)Nc1cccc(C(=O)Nc2ccc(Nc3cc(-c4[nH]c(SC)nc4C)ccn3)cc2)c1"
  CAT: "mid bin"
- COMPOUND: "O=C1NCN(c2ccccc2)C12CCN(CCCOc1ccc(F)cc1)CC2 [SPIRAMIDE]"
  CAT: "low bin"
- COMPOUND: "CC(C)NCC(O)COc1ccc(CCOCC2CC2)cc1.Cl (stereo unspecified) [BETAXOLOL HYDROCHLORIDE]"
  CAT: "low bin"
- COMPOUND: "CC[C@H](C)C(=O)O[C@H]1C[C@@H](C)C=C2C=C[C@H](C)[C@H](CC[C@@H]3C[C@@H](O)CC(=O)O3)[C@H]21 [LOVASTATIN]"
  CAT: "mid bin"
- COMPOUND: "Cc1[nH]c(/C=C2\\C(=O)Nc3ccc(S(=O)(=O)N(C)c4cccc(Cl)c4)cc32)c(C)c1C(=O)N1CCN(C)CC1"
  CAT: "high bin"

Each compound maps to one class by Population Tubulin-Different-Phenotype (%). Which class for `Cn1cc(-c2[nH]c3cc(NC(=O)[C@H](N)C4CCCCC4)cc4c3c2C=NNC4=O)cn1` ?
mid bin

Each compound maps to one class by Population Tubulin-Different-Phenotype (%). Which class for CN1CCN(CCOc2cc(OC3CCOCC3)c3c(Nc4c(Cl)ccc5c4OCO5)ncnc3c2)CC1 [SARACATINIB] ?
low bin

Reference source: ChEMBL document CHEMBL4689842
